All values here come from paper PMC4422656.

// UniProt P17931 Kd records
Sequence (P17931 whole entry): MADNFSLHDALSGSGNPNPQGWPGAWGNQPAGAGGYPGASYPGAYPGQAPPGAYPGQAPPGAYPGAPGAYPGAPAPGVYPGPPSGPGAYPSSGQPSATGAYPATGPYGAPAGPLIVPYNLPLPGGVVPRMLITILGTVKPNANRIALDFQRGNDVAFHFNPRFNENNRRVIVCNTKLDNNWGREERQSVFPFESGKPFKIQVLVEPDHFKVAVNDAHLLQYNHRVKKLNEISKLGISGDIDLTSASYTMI
Give the quantity in nM, number only.

compound	Kd, nM
CC(=O)N[C@@H]1[C@@H](O)[C@H](O[C@@H]2O[C@H](CO)[C@H](O)[C@H](O)[C@H]2O)[C@@H](CO)O[C@H]1O	330

Pending compound:
Identify the measured Kd of CC(=O)NC1C(O)OC(CO)C(O)C1OC1OC(CO)C(O)C(O)C1O (centres unmarked) for UniProt P17931.
1440

###

Entries and their measured Kd follow.
- study system: human galectin-1 (hGal1) (Homo sapiens)
- Construct: the full-length hGal1 (residues 1–135); 6xHis (N); made in house; host or cells: Escherichia coli BL21 (DE3)
- test: Fluorescence polarization (FP)-based competition binding assay
- run conditions: fluorescence anisotropy at 277 K, competition with LN2-FITC probe, read-out: Dissociation constant Kd (Kd FP)
The reply should be a number in µM, with the unit left off.

compound	Kd [µM]
CC(=O)N[C@@H]1[C@@H](O)[C@H](O[C@@H]2O[C@H](CO)[C@H](O)[C@H](O)[C@H]2O)[C@@H](CO)O[C@H]1O	3.59

With those in mind, consider the next compound.
Find Kd (human galectin-1 (hGal1) (Homo sapiens)) for the entry CC(=O)NC1C(O)OC(CO)C(O)C1OC1OC(CO)C(O)C(O)C1O (centres unmarked)
6.74

###

- study system: human galectin-1 (hGal1) (Homo sapiens, UniProt P09382)
- Construct: the full-length hGal1 (residues 1–135); 6xHis (N); made in house; host or cells: Escherichia coli BL21 (DE3)
- Sequence (P09382 whole entry, the tested form may be a part): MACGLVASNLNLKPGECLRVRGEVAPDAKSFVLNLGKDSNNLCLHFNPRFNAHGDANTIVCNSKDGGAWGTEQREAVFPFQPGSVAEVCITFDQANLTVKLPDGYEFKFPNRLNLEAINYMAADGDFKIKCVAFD
- test: Biolayer interferometry, LN1/LN2 binding affinity
- run conditions: Biolayer Interferometry at 300 K, steady-state, read-out: Dissociation constant Kd (Kd BI)
quantity measured: pKd
Convention used: pKd is expressed as -log10 of the molar concentration.

Any idea what pKd was measured for `CC(=O)N[C@@H]1[C@@H](O)[C@H](O[C@@H]2O[C@H](CO)[C@H](O)[C@H](O)[C@H]2O)[C@@H](CO)O[C@H]1O` ?
3.82
